Tested on: Plasmodium berghei
ASSAY_NAME: Screen against P. berghei liver stage (PbLuc), transformed with Luciferase, at 10uM
Assay type: functional, HepG2
APPLIED_CONDITIONS: tested at 10 uM
The whole screen tested about 69,000 compounds, of which about 8,600 (12%) showed an effect of 50% or more. The list comes from a sample in which strong results are over-represented; it also holds close analogues and randomly drawn compounds.
PROPERTY: INHIBITION

Answered cases to consult:
Cc1ccc(C(=O)N2CCCCC2c2[nH]ncc2S(C)(=O)=O)cn1 (centres undefined) : 24.8%
CC(C)n1cnnc1CNC(=O)c1cnn(-c2ccccc2)c1 : -20.3%
Cc1cccc(CN2C[C@H]3CCC[C@@]3(COCc3csc(C)n3)C2)n1 : -28.2%
CCN(CC)c1ccc(C(=O)N2CCCC2Cn2cc(C)cn2)cn1 (centres undefined) : -4.75%
CCC(CC)CN1CCC2(CCCN(c3ncccn3)C2)C1 (centres undefined) : 62.5%
c1cnc(N2CCCC3(CCN(CC4CC4)C3)C2)nc1 (centres undefined) : 43.9%
CC[C@@H](CO)NC(=O)c1cccc(CCC(C)(C)O)c1 : 5.78%
COCCN1CCC2(CCCN(c3ncccn3)C2)C1 (centres undefined) : 48.3%

Task: Which INHIBITION is listed for `Cc1csc(CN(C)C(=O)c2cccc(CCC(C)(C)O)c2)n1` ?
Output: 34.9%

Task: Which INHIBITION is listed for COC(=O)c1sc2cccc(F)c2c1CNC(=O)C1CCCO1 (centres undefined) ?
Output: -1.37%

Task: Which INHIBITION is listed for `c1cnc(N2CCC3(CCCN(Cc4ccncc4)C3)CC2)nc1` ?
Output: 82.3%

Task: Which INHIBITION is listed for `O=S(=O)(CCN1CCN(c2ccccc2O)CC1)c1ccc(Cl)cc1` ?
Output: -36.3%

Task: Which INHIBITION is listed for `CC(C)n1ccnc1CNC(=O)c1cccc(CCC(C)(C)O)c1` ?
Output: 54.5%
